# System: MS2 coat protein
# PROCEDURE SUMMARY: apparent KD of MS2 coat protein; designed switch direction (-1 OFF switch, 1 ON switch): -1; higher = weaker reporter binding
# SETUP CONDITIONS: Eterna round: R95; input ligand: none
MEASUREMENT NAME: apparent KD of MS2 coat protein (nM)

1. AUGAGCAGACGGAGAUCCAACAUGAGGAUCACCCAUGUCUCAAAAGCUUUUUGCUCAUCUUAUUGUACCUUGGUGCU [Mat - Sensor v3 - turn-off var 1 - JL Mod - D16] (puzzle: Sensor v3, turn-off variant 1) : 194
2. CGUCCUGAAGUGAGGAUAUUGUCUCGGAUACGAAACAAGAAGGCACAUGAGGAUCACCCAUGUAAACAGGACGA [Malc #30 mod 11] (puzzle: Brourd's mod of Exclusion 4) : 16.9
3. UUAUAUAGUGUGAGGAUAUGCUGGUCCUUGGAUCAGCAGAAGGCACAUGAGGAUCACCCAUGUAGUUAAAUAUA [Mat - Exclusion 4 - JL Mod - D18] (puzzle: Brourd's mod of Exclusion 4) : 39.5
4. GAAAAGGUAGGAUAUACGAAAUAAAAGGGUAGAAAAAAAACACAUGAGGAUCACCCAUGUAGAAGGACCAAAAG [salish99_ex2_r3_084] (puzzle: Exclusion 2) : 34.7
5. UUUAAUUUUUUUUUUUUACAAGCUUUUUGCUCGUCUUAUACAUGAGGAUCACCCAUGUGGGUGAAAGGUAAAUUAUC [JMF 64] (puzzle: Sensor v3, turn-off variant 2) : 54.2
6. GUUUGCGCAGGAUAUACAUGAGGAUCACCCAUGUGAGAGAAAGAAGUGAGGAAGAAAAGUAGAAGGGCGUGACG [Mat - Exclusion 3 - Mod of Salish D72] (puzzle: Exclusion 3) : 39
7. CGGCAACAUGUCAGGAUAUAUGUACCGCUGGGUGGAUAGAAGGGACAUGAGGAUCACCCAUGUCGUCCAGCCGG [Tisove] (puzzle: Brourd's mod of Exclusion 4) : 13.9
8. AGAGAGUCAGGAUAUCGAAGGUAGAGAAGAGGAGAGUGGUACGAGAAGGGACAUGAGGAUCACCCAUGUAGGUG [JR_Exclusion4)Sub012] (puzzle: Exclusion 4) : 462
9. AAGAAGCAAGGAUAUACAACGGGCCACAGAGCCGAAGGGCAACAUGAGGAUCACCCAUGUAGAAGGUGCGUAAC [Lecebeqube] (puzzle: Exclusion 2) : 28.2
10. ACCCAACAUGAGGAUCACCCAUGUCAGGAUAUCCAUCACUAUCACGAAAGGAUAGGAUGGAGAAGGGACAGAGG [ChP 04-04-2015 #3] (puzzle: Exclusion 1) : 158
11. CAAAAGCUAGGAUAUCGCAAACAAGACAUGAGGAUCACCCAUGUGUCCAUGGCCGACCUCCGAGAAGGAGCAAUAU [Dieded] (puzzle: Exclusion 5) : 30.5
12. UCGUGGUUACGCUGCAGUUGCCUGAGCGGAGGCUCUGUGACAUGAGGAUCACCCAUGUAGCUUUUUGCUCAUCUUAA [JR_SV3TOV2_Sub040] (puzzle: Sensor v3, turn-off variant 2) : 24.6
13. CUGGUCCGAGGAUAUAUUAAGUGAAACAUGAGGAUCACCCAUGUAAUUUGAUGGAUGUAAAUAGAAGGCGGACUAG [JL-ex5-3.09] (puzzle: Exclusion 5) : 43.8
14. UCAUACGAUGAGGAUAUCUCAGUUAAAGUAUUUAGAGAAGGCGUUACAUGAGGAUCACCCAUGUUUGUGGGCAG [Ex-6 Malc#8] (puzzle: Exclusion 6) : 136
15. AUCGUGAAGAAGGAUAUGGGCCCGGUAAAACGACUAGAAGGUCUGACAUGAGGAUCACCCAUGUGAUACCAAAA [Veve] (puzzle: Exclusion 6) : 35.3
16. GGUUGACAUGAGGAUCACCCAUGUGAGGAUAUGCGAGAGAAAAAAGUGAGGAAGAGAAGCAGAAGGCGCUGUCG [salish99-ex1_r3_014] (puzzle: Exclusion 1) : 106
17. GCAUCCAGUGUGAGGAUAUACCUCUGGAUACAUAGGUAGAAGGCACAUGAGGAUCACCCAUGUCCUAAGGAUGC [Fiskers BMX 4 - 29] (puzzle: Brourd's mod of Exclusion 4) : 75.5
18. CAUGGAUGUGAGCCGCAUUACAUGAGGAUCACCCAUGUCAACAAGCUUUUUGCUUGUCUUACGCGGCGGCAUCUAAA [Abebies] (puzzle: Sensor v3, turn-off variant 1) : 10.3
19. AAGAAACAUGAGGAUCACCCAUGUGAGGAUAUGAAAAAGAAAAUAAAAUAAAGAAGAAUCAGAAGGCACAAAGG [Mat - Mod of Hog D4] (puzzle: Exclusion 1) : 28.1
20. ACGUAACGAGCUUGGUCCAACAUGAGGAUCACCCAUGUGCUCGUCUUAUAACGUACUGUCACGUUAGUGAUAGUGCG [Sensor v3, turn-off variant 1 (MOD of Eli's v1-13 v.6)] (puzzle: Sensor v3, turn-off variant 1) : 360
21. AGUCCAUAUGUUAGGAUAUGCAACUAGCCAUUGUAGCAGAAGGAACAUGAGGAUCACCCAUGUACAAAGACCCG [Biinvees] (puzzle: Brourd's mod of Exclusion 4) : 18.2

----------
# Test system: MS2 coat protein
# PROCEDURE SUMMARY: apparent KD of MS2 coat protein; designed switch direction (-1 OFF switch, 1 ON switch): 1; higher = weaker reporter binding
# SETUP CONDITIONS: input ligand: FMN 200 uM
MEASUREMENT NAME: apparent KD of MS2 coat protein

1) GUUGAAUUGCAAGGAUAUCUUAGUCAGACGCUAAGAGAAGGUGCUUUACAGUUACAUGAGGAUCACCCAUGUCUUUCUUUUGAU [Jens NG1-01] (Eterna round: R96, puzzle: Same State NG 1) : 23.4 nM
2) CCAUAACAGUGAGGAUAUUGUUGCGAUAAGUGACGAGAAGGCAUUUAUGUGAAAUAAACAUACAUGAGGAUCACCCAUGUUGUA [Omei SS(NG)1 Bv4] (Eterna round: R96, puzzle: Same State NG 1) : 17.3 nM
3) GCAGGACGAUAAAACAUCUCACAUGAGGAUCACCCAUGUCGUGAGGAUAUGGAUCCUAAUUGGAUCCAGAAGGCAUGGUCCUGC [Fiskers NG3ss - 24] (Eterna round: R96, puzzle: Same State NG 3) : 13.2 nM

----------
# Test system: MS2 coat protein
# PROCEDURE SUMMARY: apparent KD of MS2 coat protein; designed switch direction (-1 OFF switch, 1 ON switch): 1; higher = weaker reporter binding
# SETUP CONDITIONS: input ligand: microRNA oligo, concentration not stated
MEASUREMENT NAME: apparent KD of MS2 coat protein (nM)

1) GUAGCAUACCGAGGAUAUUCAUAUUAUAACAUGAGGAUCACCCAUGUUGGCCGAUUACGGCCUUGGGAGAAGGCGGAAUGCUAC [Xeonanis - 20 Mod18] (Eterna round: R96, puzzle: Same State NG 2) : 74.1
2) GCCAUCCAGUGAGGAUAUGGCACCGAAACGGUGCCAGAAGGCAUGUCAAUUGACAUGAGGAUCACCCAUGUAUUAUGGAUGGCA [Mat - Same State NG 1 - JL mod - D85] (Eterna round: R96, puzzle: Same State NG 1) : 694
3) AUACUGUACCGAGGAUAUCCAUUUUUCUAACAUGAGGAUCACCCAUGUGAAGGGAUUGAGUUGUAGGAGAAGGCGGUAUAGUAU [JR_SSNG2_Sub062] (Eterna round: R96, puzzle: Same State NG 2) : 11.6
4) UCUGCAUGAACAGGAUAUGGGUUCAGAGCGGGAGUGCGCUUUGACACAUGAGGAUCACCCAUGUCCCAGAAGGGUUCAAGCGGC [Rianbein] (Eterna round: R96, puzzle: Same State NG 2) : 219
5) GCAGGGCCGGGCCCUGCAGACAUGAGGAUCACCCAUGUAACACAGGAUAUGACUGGGAUACCUGGUUAGAAGGGUGCGAAAGAA [Ustivetice] (Eterna round: R96, puzzle: Same State NG 3) : 645

----------
# System: MS2 coat protein
# PROCEDURE SUMMARY: apparent KD of MS2 coat protein; designed switch direction (-1 OFF switch, 1 ON switch): -1; higher = weaker reporter binding
# SETUP CONDITIONS: Eterna round: R95; input ligand: FMN 200 uM
Items are presented alongside their recorded apparent KD of MS2 coat protein.
MEASUREMENT NAME: apparent KD of MS2 coat protein

1. AAGAAGAAACAAGCUUUUUGCACGUCAGGUAGUGACGCAACAUGAGGAUCACCCAUGUAUAGGGUGGGAAAGGAUAG [JR_SV3TOV2_Sub048] (puzzle: Sensor v3, turn-off variant 2) : 0.034 µM
2. CUAGAUCUUCGGAUCUAGUACAUGAGGAUCACCCAUGUUACGAGUUGAUUUUCAUACAAGCUUUUUGCUCGUCUUAU [Sensor v3 - Turn-off variant 1 - 28] (puzzle: Sensor v3, turn-off variant 1) : 0.134 µM
3. CUGAUGGACUAGGAUAUCCUCAUCGAUCAGGGAGGAGAAGGAGUCACAUGAGGAUCACCCAUGUGAUGGUAAAA [Atqubi] (puzzle: Exclusion 6) : 0.0149 µM
4. AGGGAUAAAGGAUAUACAUGAGGAUCACCCAUGUUGAGGAAAGUGAGAUGAGGAGGAAGUAGAAGGUUAGGCGG [JR_Exclu3_Sub084] (puzzle: Exclusion 3) : 0.0357 µM
5. AGUACUAACACGAAAGUGUUAGUACAAUAAGCUAGUGGAACAUGAGGAUCACCCAUGUCCUCAUUAGCUCGUCUUAG [Mat - Sensor v3 - Turn-off var 2 - D35] (puzzle: Sensor v3, turn-off variant 2) : 0.0154 µM
